# study target: HLA DRB1*03:01 (Homo sapiens, UniProt P01903+P01911, A100K/A102G/A103R/A169T/F55Y/I96L/K41T/L162R/M171V/P40S/Q125H/Q178H/Q39Y/R42S/S66N/T106N/T262R/W38E/Y61H)
# Sequence (P01903 26-254, other chains not shown): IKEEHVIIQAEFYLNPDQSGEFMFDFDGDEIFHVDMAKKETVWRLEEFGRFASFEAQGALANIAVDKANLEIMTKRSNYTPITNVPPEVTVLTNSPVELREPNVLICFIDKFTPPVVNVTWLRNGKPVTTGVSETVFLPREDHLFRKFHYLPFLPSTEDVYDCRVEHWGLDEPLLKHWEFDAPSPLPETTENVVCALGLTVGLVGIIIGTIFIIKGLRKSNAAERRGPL
# assay text: biochemical
# Format: binding
# conditions used: binder threshold 1,000 nM, read-out: In vitro (IC50 nM) DRB1*03:01
readout type: IC50 (nM)
Lab book: enter the figure in nM, no units written.

Sample answers from the record:
{"compound": "CC(C)C[C@H](NC(=O)[C@H](CCCNC(=N)N)NC(=O)[C@H](Cc1ccc(O)cc1)NC(=O)[C@H](Cc1ccccc1)NC(=O)[C@@H](N)CCCNC(=N)N)C(=O)N[C@@H](C)C(=O)N[C@@H](CC(N)=O)C(=O)N[C@@H](CCC(=O)O)C(=O)N[C@@H](CS)C(=O)N[C@@H](C)C(=O)N[C@@H](CCC(N)=O)C(=O)N[C@H](C(=O)N[C@@H](CC(C)C)C(=O)N[C@@H](CO)C(=O)N[C@@H](CCC(=O)O)C(=O)O)C(C)C", "IC50 / nM": 8410}
{"compound": "CC[C@H](C)[C@H](NC(=O)[C@@H](NC(=O)[C@@H]1CCCN1C(=O)[C@@H](NC(=O)[C@@H](NC(=O)[C@H](CC(N)=O)NC(=O)[C@H](CCCNC(=N)N)NC(=O)[C@H](CCCCN)NC(=O)[C@@H](NC(=O)[C@H](Cc1ccc(O)cc1)NC(=O)[C@H](C)NC(=O)[C@H](Cc1ccccc1)NC(=O)[C@H](CC(C)C)NC(=O)[C@H](C)N)[C@@H](C)O)C(C)C)[C@@H](C)CC)[C@@H](C)O)C(=O)N[C@H](C(=O)O)[C@@H](C)O", "IC50 / nM": 709}

// switching to the query compound
**Query** What does the record list as IC50 for CC(C)C[C@H](NC(=O)[C@H](Cc1ccc(O)cc1)NC(=O)[C@H](C)NC(=O)[C@H](Cc1ccc(O)cc1)NC(=O)[C@H](Cc1ccccc1)NC(=O)[C@H](CCC(=O)O)NC(=O)[C@H](CC(N)=O)NC(=O)[C@@H](NC(=O)[C@H](Cc1ccccc1)NC(=O)[C@H](CC(=O)O)NC(=O)[C@@H](NC(=O)[C@H](CC(=O)O)NC(=O)[C@@H](NC(=O)[C@@H](N)CC(=O)O)C(C)C)[C@@H](C)O)C(C)C)C(=O)N[C@@H](CCCNC(=N)N)C(=O)O [Peptide 148] ?
**Result** 28500
